# TEST_SYSTEM: T1, PSMA Fab (biotinylated (site not stated))
# T1 construct: also called Anti-PSMA Fab; 006 PSMA Fab
# ASSAY_NOTES: clonal phage ELISA on captured PSMA Fab, wells pre-incubated with PSMA antigen as competitor; column meaning inferred
Where no end group is shown, it is not given here.
Reported Phage binding ELISA signal, Anti-PSMA Fab in presence of PSMA antigen by item:
REPORTED_PROPERTY: Phage binding ELISA signal, Anti-PSMA Fab in presence of PSMA antigen

BINDER | RESULT
VDKWCIPAWMCDRS (cysteine pairing not given here; also: displayed on phage as pIII fusion, linker and pIII sequence not given here, Clonal phage of the peptide-180 library; not shown: fused to pIII of the bacteriophage) [Phage-2606] | 0.0604
VMKWCTPSWMCEHI (cysteine pairing not given here; also: displayed on phage as pIII fusion, linker and pIII sequence not given here, Clonal phage of the peptide-180 library; not shown: fused to pIII of the bacteriophage) [Phage-2605] | 0.0582
HVNWCTPKWMCSGF (cysteine pairing not given here; also: displayed on phage pIII, linker not given here, Clonal phage of the peptide-180 library; not shown: fused to pIII of the bacteriophage) [Phage-2614] | 0.0894
YTPWCKPAWMCSVS (cysteine pairing not given here; also: displayed on phage pIII, linker not given here, Clonal phage of the peptide-180 library; not shown: fused to pIII of the bacteriophage) [Phage-2617] | 0.0806
MVKWCTPAWMCTLE (cysteine pairing not given here; also: displayed on phage as pIII fusion, linker and pIII sequence not given here, Clonal phage of the peptide-180 library; not shown: fused to pIII of the bacteriophage) [Phage-2609] | 0.0801
HEKWCIPPWMCEAN (cysteine pairing not given here; also: fused to phage pIII (clonal phage display), Clonal phage of the peptide-180 library; not shown: fused to pIII of the bacteriophage) [Phage-2615] | 0.0603
QMKLCIPQWMCVDH (cysteine pairing not given here; also: displayed on phage as pIII fusion, linker and pIII sequence not given here, Clonal phage of the peptide-180 library; not shown: fused to pIII of the bacteriophage) [Phage-2607] | 0.0553
AFKWCIPNWMCASQ (cysteine pairing not given here; also: fused to phage pIII (clonal phage display), Clonal phage of the peptide-180 library; not shown: fused to pIII of the bacteriophage) [Phage-2618] | 0.0999
VWQLCIPPWMCQFE (cysteine pairing not given here; also: displayed on phage as pIII fusion, linker and pIII sequence not given here, Clonal phage of the peptide-180 library; not shown: fused to pIII of the bacteriophage) [Phage-2604] | 0.113
FANWCTPSWMCVGM (cysteine pairing not given here; also: displayed on phage pIII, linker not given here, Clonal phage of the peptide-180 library; not shown: fused to pIII of the bacteriophage) [Phage-2612] | 0.0676
MYNLCTPEWMCAGF (cysteine pairing not given here; also: displayed on phage pIII, linker not given here, Clonal phage of the peptide-180 library; not shown: fused to pIII of the bacteriophage) [Phage-2613] | 0.0554
